Source: patent US9357778B2

Test Protocol: log P by HPLC on reversed-phase column (C 18), EEC Directive 79/831 Annex V.A8
Format: physicochemical
Particulars: 40° C., 0.1% aqueous formic acid and acetonitrile
Experimental Endpoint: logP
Just the number.

{"Compound": "Cn1cc(C(=O)N2CCCC2C23CC4CC(CC(C4)C2)C3)c(C(F)F)n1 (centres unmarked)", "logP": 3.89}
{"Compound": "COCCCOCCC1CCCCN1C(=O)c1cn(C)nc1C(F)F (centres unmarked)", "logP": 1.96}
{"Compound": "Cn1cc(C(=O)N2CCCCC2CCOCC2CCC2)c(C(F)F)n1 (centres unmarked)", "logP": 2.92}
{"Compound": "CCCOCCC1CCCCN1C(=O)c1c(C(F)F)nn(C)c1F (centres unmarked)", "logP": 2.73}
{"Compound": "Cn1nc(C(F)F)c(C(=O)N2CCCCC2C2CCCCC2)c1F (centres unmarked)", "logP": 3.60}
{"Compound": "CCCOCCC1CCCCN1C(=O)c1cn(C)nc1C(F)F (centres unmarked)", "logP": 2.39}
{"Compound": "Cn1cc(C(=O)N2CCCCC2CCOCC2CC2)c(C(F)F)n1 (centres unmarked)", "logP": 2.32}
{"Compound": "CCCCCCC1CCCN1C(=O)c1cn(C)nc1C(F)F (centres unmarked)", "logP": 3.37}

So, Cn1nc(C(F)F)c(C(=O)N2CCCC2C2CCCCC2)c1F (centres unmarked) ? Its logP was 3.31

Recorded result, Cn1nc(C(F)F)c(C(=O)N2CCCC2CC2CCCCC2)c1Cl (centres unmarked) , logP: 3.89

For reference, reported logP for Cn1nc(C(F)F)c(C(=O)N2CCCCC2CCOCC2CC2)c1Cl (centres unmarked) stands at 2.82

Reported logP for Cn1nc(C(F)F)c(C(=O)N2CCCC2CC2CC3CCC2C3)c1F (centres unmarked) was 3.89

Item: COCCCOCCC1CCCCN1C(=O)c1c(C(F)F)nn(C)c1Cl (centres unmarked) | logP: 2.39

# compound Cn1cc(C(=O)N2CCCC2CC2CCCCC2)c(C(F)F)n1 (centres unmarked) ; its logP = 3.33

Item: Cn1nc(C(F)F)c(C(=O)N2CCCCC2CC2CCCCC2)c1F (centres unmarked) | logP: 4.19

Sure, the documented logP for Cn1nc(C(F)F)c(C(=O)N2CCCC2C(F)(F)F)c1Cl (centres unmarked) is 2.39

Entry Cn1cc(C(=O)N2CCCC2C2CCCCC2)c(C(F)F)n1 (centres unmarked) , logP reported as 2.88

Value of logP reported for the compound Cn1nc(C(F)F)c(C(=O)N2CCCC2CC2CCCCC2)c1F (centres unmarked) is 3.78

Given item Cn1nc(C(F)F)c(C(=S)N2CCCC2CC2CCCCC2)c1F (centres unmarked) , the value recorded as its logP is 3.96

The recorded logP for entry COCCCC1CCCCN1C(=O)c1c(C(F)F)nn(C)c1F (centres unmarked) equals 2.18
